- Tested on: E. coli TESEC Mtb Alr
- assay-method-text: growth (OD600 after 10 h); higher = more growth (less inhibition)
- details: arabinose 10000 nM; compound 0.1 mM; raw OD600 reference: median of DMSO wells 0.264, cell-free background 0.041
Where a name gives a salt, the structure may show the parent alone.
Readings of growth for the listed compounds

{"compound": "CCN(CC)CC#CCOC(=O)C(O)(c1ccccc1)C1CCCCC1 (centres undefined) [Oxybutynin chloride]", "growth": 0.167}
{"compound": "CNC(=C[N+](=O)[O-])NCCSCc1csc(CN(C)C)n1", "growth": 0.274}
{"compound": "CN(C)CCOC(C)(c1ccccc1)c1ccccn1 (centres undefined) [Doxylamine succinate]", "growth": 0.249}
{"compound": "CCN(CC)CCNC(=O)c1ccc(N)cc1 [Procainamide hydrochloride]", "growth": 0.256}
{"compound": "C1CCC(C(CC2CCCCN2)C2CCCCC2)CC1 (centres undefined) [Perhexiline maleate]", "growth": 0.0391}
{"compound": "CC(C)/N=c1\\cc2n(-c3ccc(Cl)cc3)c3ccccc3nc-2cc1Nc1ccc(Cl)cc1", "growth": 0.154}
{"compound": "CN(C)CCOC(c1ccccc1)c1ccccc1 [Diphenhydramine hydrochloride]", "growth": 0.238}
{"compound": "N[C@@H](Cc1ccc(O)c(O)c1)C(=O)O", "growth": 0.267}
{"compound": "Cc1cc(C(C)(C)CC(C)(C)C)ccc1OCCOCC[N+](C)(C)Cc1ccccc1 [Methyl benzethonium chloride]", "growth": 0.0504}
